// provenance: the supplement of paper PMC12455559

purified protein yield per well values for the sequences below.
test_description: purified protein yield per well (BCA); higher = higher soluble expression

[
  {
    "polymer_sequence": "QTTAPTSASLNATAGPLSVSTASVSLPRGFGGGTIYYPTTQARYGVIAISPGFTATETSIAWLGRRIATHGFVVITLNTLTTLDQPASRANQLMAALSYVVNSSTSAVKARIDTTRLAVAGHSMGGGGALIAARDNPTLKASYPLTPWNSSTSFSTVRVPTMIIGADGDTIAPVAAHARPFYASLPGATTKAYGELNGGTHFSPNSTNTPIGRYGVAWMKRFVDGDTRYSTFLCGTEHTRYASALVFDRYNQNCPY [ESM124]",
    "purified protein yield per well": "< 25 µg"
  },
  {
    "polymer_sequence": "ADNPYQRGPDPTVASVAATRGTFATAQLTVPAGNGFGGGYIYYPTDTGHGTWGAVAIVPGYSALFADEEAWMGPWLASFGFVVIGVETITRSDGADARATELLAALDYLTQRSAVRDRVDPTRLAVMGHSAGGAGTILAAERRPSLKAAVGLAPGTPGTLSLATDKVPMMVIGGQTDPTVTPAYLDNLYAGMPTTTPSDFVQIAGADHLFFTRANNTEMKVLIPWLKIFLDNDTRYTQFLCPSLADPSGISLYRSKCPYLPPGTTSPSPPSPSPSSPSQSVSPSTPVTGCTAGYRTVGSWPGGFQGEVTVTAGSAAISGWTVGWTLGSGQTITQLWNGALTTSGSAVTVRNASYSGSVPAGGSVVFGFLANGTPSAPVLACASR [ESM027]",
    "purified protein yield per well": "< 25 µg"
  },
  {
    "polymer_sequence": "ADNPYQRGPDPTRTSVTAVNGPFANTSVSVPTGHGFNGGRIYYPTDTSQGTFGAIAISPGYTALFSAELAWMGPWLASHGFVVIGIETNSRNDFDTARGTQLLAALDYLTQQSPVRDRVDPSRLAVSGHSMGGGGALSAAMRRASLKAVVGITPYSPSSNLANDRVPTMIISGQADTVVTPSYALGLYNSIPATTESVYLEVAGGDHGFMVGRSNPVLVRTMLPFLKMFIDNDTRYSQFLCPLLDNSGVVTYRSTCPLLPTDPTTPPTGTPTPTPTTPAPTTPPPTTPPGSASEIRGTQSNRCIDVPNASRNNGTRVQLYDCNRQTNQAWTYTANKQLQVYGNMC [ESM106]",
    "purified protein yield per well": "392 µg"
  },
  {
    "polymer_sequence": "VQNGPTPTLADLKKDGPYAVTSQTVAGNGFGGGTVYSPNTAGKYALVAVCPGFVSAQSSMTEMGRRLATHGFVVVTIATNTPFDFPSSRATQLLAALKTVAALNTGAVAGKVDTSRQVVSGWSMGGGGTLEAAGITPGLVAGVAFAPWHTSTAKMTSLTVPVAIIGGTSDTIAPVSGHSQKFYDAIPKTTKKMLGVITGADHFFPTKASEPTSYSNISWVKRFADGDTRYSPFLTGQDAAWASFVSTGPF [ESM118]",
    "purified protein yield per well": "< 25 µg"
  },
  {
    "polymer_sequence": "QTNPYERGPAPTTSSLEASRGPFSYQSFTVSRPSGYRAGTVYYPTNAGGPVGAIAIVPGFTARQSSINWWGPRLASHGFVVITIDTNSTLDQPDSRSRQQMAALSQVATLSRTSSSPIYNKVDTSRLGVMGWSMGGGGSLISARNNPSIKAAAPQAPWSASKNFSSLTVPTLIIACENDTIAPVNQHADTFYDSMSRNPREFLEINNGSHSCANSGNSNQALLGKKGVAWMKRFMDNDRRYTSFACSNPNSYNVSDFRVAACN [ESM158]",
    "purified protein yield per well": "< 25 µg"
  },
  {
    "polymer_sequence": "AAPAGPAALPARPLAAAPADSPYERGPAPTEASITAERGPFAIEKIDVPAGSGTGFNRGTIYAPTDTSQGTFGAIAVSPGFMSPQSVIDWYGPRLASQGFVVMTLETKSLLDAPAARGDQLLAALDYMTGKSKAKDRIDASRLAVMGHSMGGGGTLEAANKRASLQAAVPLAPWDTNYDWKNVQAPTMIMGADNDTIAPADSMAERYYGTLTAVPEKAYLELRNAGHTTFNAPNTTIAKYAIAWMKRFVDDDARYEQFLCPEPSPSTTIAQYEGTCPTG [TEP067]",
    "purified protein yield per well": "49.7 µg"
  },
  {
    "polymer_sequence": "ADPGTGGGNGGGNTCQEDCGFERGPDPSVSMLEARNGPFSVRTSRVSGLVSGFGGGTIHYPTGQSGTMGAIVVIPGFVSAESSIDWWGSQLASHGFVVMTIDTNTGFDQPPSRARQINAALDYLVDQNRASGSPVNGMIDTSRLGVIGWSMGGGGTLRVATEGRIKAAIPLAPWDTSSRQFRSVQAPTLIFACGSDLIAPVRSHASPFYNALPNGLDKAYFEISRGSHYCANGGNTNNSRLSRLGVSWMKLHLDQDQRYNQFICGPRHESDRSISEYRGNC [ESM181]",
    "purified protein yield per well": "< 25 µg"
  },
  {
    "polymer_sequence": "AENPYQRGPDPTLAALAASAGPYPIMETVVGSAEVTNFGGASIYYPAGTADGTFGGVAVTPGFLGPRSTMEWVARRVASHGFVVINIDTLERNDTPPLRARQMLAALDYLTGASAVRDRVDPTRLAVMGHSMGGGGSLQASRQRPQLKAAVPLTPWSNDKDFSADVVPTLIIGAELDDTAPVAEHAEPFFESIAAARKAYLELNDAEHRAPIRTNETIGTYSVAWLKRFVDDDTRYEQFLCPPPAPSAAIEEFRGTCPSS [TEP106]",
    "purified protein yield per well": "87.7 µg"
  },
  {
    "polymer_sequence": "DGEYRVLTYTDFPDAPEFGDGTIYYPVGTPGPIGGVAIVPGFTEEQRAVAWLGPRLASHGYAVLIFDTNDRRDPAQVRADELMGAVRVLRAENSRRGSPLFGRIDASKMAIMGHSMGGGGALLAADAHSDQVSAVITFAPYEPTASFSEITVPTLIFGGSADPIAPVADHAWRHFNSIPAST [TEP123]",
    "purified protein yield per well": "< 25 µg"
  },
  {
    "polymer_sequence": "VENGPVPTLADLKKDGPYAVTSQKVAGSGFGSGTIYSPNTAGKYALVAVCPGFVSAESSITDISRRLATHGFVVITIGTKTLLDFPSSRATQLLAALKTATTTTTGPVVGKIDTARQVVSGWSMGGGGTLEAAGITPGLKAAVAYAPWHSTTTKIKTSTVPSIIFGATGDVVAPVASHSQKFYDVLPTSTKKQLAVLQGSNHFFPNSAIEPVSYSNISWVKRFADGDTRYSQFLSVADPAWSKVQSNGPF [ESM166]",
    "purified protein yield per well": "< 25 µg"
  }
]

====

Below, each entry is listed alongside its reported PET hydrolysis.
test_description: PET hydrolysis, aromatic products released after 48 h (umol product/mg enzyme); higher = more PET depolymerization activity
applied_conditions: substrate: cryPow; 60 °C; pH 5.5
measured_endpoint: PET hydrolysis

[
  {
    "polymer_sequence": "ADNPYQRGPDPTPALVASVNGPFATASVSVPAGYGFGGGMIYYPTDTSQGTFGGIAISPGYTALFSAELAWMGPWLASHGFVVIGIETNNRNDFDEARGTQLLAALDYLTQQSPVRNRVDPNRLAVAGHSMGGGGALNAAIRRPSLKAAVGLAPFSPSSNLANDRVPTMVFSGQQDTVVTPSYVTGLYNSLPSTTQSAYLEIAGGDHGFPVGRPNQVMIRTMLPFVKIFVDYDTRYSPFLCPLSDTSGVVTYRSTCPLTPPGLPTTPPTTPPTTVPTSPPTGGPTTPPTTPSQPGGACTATYRTVNSWPGGFQGEVTVTAGNSAINGWTVRWTLDSGQAITQVWNGEVSTSGSTVSVRNAPYNGSLPPSGSTTFGFLSSGSPSSPSLTCTSP [DP059]",
    "comparator": "=",
    "experimental_value": 32.5
  },
  {
    "polymer_sequence": "ADNPYERGPAPTNASIEAVRGPYAVSQATVSSLAVTGFGGGTIYYPTTTSDGTFGAVAISPGYTGTQSSIAWLGPRLASQGFVVFTIDTNTTLDQPDSRGRQLLAALDYLTRVSPLRTRVDSTRLGVMGHSMGGGGSLEAAKSRPSLQAAIPLTPWNLDKTWPEIQTPTLIVGADGDSIAPVSSHAEPFYENLPSSLDRAYLELNGASHFAPNSSNTTIAKYSISWLKRFIDNDTRYEQFLCPLPRPSLTIEEYRGNCPHQS [TEP188]",
    "comparator": "<",
    "experimental_value": 3
  },
  {
    "polymer_sequence": "ADNPYQRGPDPTRTSVATERGPFANTSVSVPSGYGFNGGRIYYPTDTSQGTFGAIAISPGYTALFSAELAWMGPWLASHGFVVIGIETNSRNDFDTARGTQLLAALDYLTQQSPVRDRIDPNRLAVSGHSMGGGGALSAAMRRSSLKAVVGIAPYSPSSNLANDRVPTMIFSGQADTVVTPSYAMGLYNSIPAGTKSAYLEVAGGDHGFMVGRSNPVLIRTMLPFLKIFIDNDARYSQFLCPLLDNSGVVTYRSTCPFLPTTPTTPPPTG [ESM065]",
    "comparator": "=",
    "experimental_value": 4
  },
  {
    "polymer_sequence": "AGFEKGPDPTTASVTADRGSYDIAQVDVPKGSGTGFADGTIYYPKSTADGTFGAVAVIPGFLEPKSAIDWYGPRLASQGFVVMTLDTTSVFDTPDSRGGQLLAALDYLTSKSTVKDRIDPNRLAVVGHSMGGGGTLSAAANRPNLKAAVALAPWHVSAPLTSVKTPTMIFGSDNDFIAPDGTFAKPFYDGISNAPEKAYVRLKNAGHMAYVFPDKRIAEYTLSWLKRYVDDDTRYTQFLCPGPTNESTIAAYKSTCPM [DP093]",
    "comparator": "<",
    "experimental_value": 3
  },
  {
    "polymer_sequence": "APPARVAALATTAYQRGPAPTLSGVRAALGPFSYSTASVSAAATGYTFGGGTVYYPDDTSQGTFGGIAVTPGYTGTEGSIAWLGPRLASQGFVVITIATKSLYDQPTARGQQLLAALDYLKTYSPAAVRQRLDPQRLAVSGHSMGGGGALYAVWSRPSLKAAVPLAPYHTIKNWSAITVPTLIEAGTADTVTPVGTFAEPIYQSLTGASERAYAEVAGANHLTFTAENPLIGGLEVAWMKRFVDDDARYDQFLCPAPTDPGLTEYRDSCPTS [TEP101]",
    "comparator": "=",
    "experimental_value": 3
  },
  {
    "polymer_sequence": "ANPYERGPNPTQALLEARSGPFSVSSERAWRLGSDGFGGGTIYYPRENNTYGAVAISPGYTGTQASVAWLGERIASHGFVVITIDTNTTLDQPDSRADQLEAALDHMVDGASSTVRSRIDRNRLAVMGHSMGGGGTLRLASQRPDLKAAIPLTPWHLNKSWSNVQVPTLIIGADLDTIAPVLTHAEPFYNSIPTSTRKAYLELDGATHFAPNITNSTIGMYSVAWLKRFVDEDTRYTQFLCPGPRTGLFSDVEEYRSTCPF [TEP014]",
    "comparator": "<",
    "experimental_value": 3
  },
  {
    "polymer_sequence": "ADNPYERGPDPTESSIEASRGPFAVSQTTVSSLAVTGFGGGTIYYPTDTSQGTFGAVAISPGYTADQSSIAWIGPRLASQGFVVFTIDTITRYDQPASRGDQLLAALDYLTQRSSVRGRIDSSRLGVAGHSMGGGGTLEAAEERPSLQAAVPLAPWNLQKNFSGVRVPTFIIGGESDTVAPVATHSEPFYTSLPSTLDKAYMELNNASHFFPNTPNTTMAKYMISWFKRFIDDDTRYDQFLCPNPSGLAIEEYRSTCPY [TEP089]",
    "comparator": "<",
    "experimental_value": 3
  },
  {
    "polymer_sequence": "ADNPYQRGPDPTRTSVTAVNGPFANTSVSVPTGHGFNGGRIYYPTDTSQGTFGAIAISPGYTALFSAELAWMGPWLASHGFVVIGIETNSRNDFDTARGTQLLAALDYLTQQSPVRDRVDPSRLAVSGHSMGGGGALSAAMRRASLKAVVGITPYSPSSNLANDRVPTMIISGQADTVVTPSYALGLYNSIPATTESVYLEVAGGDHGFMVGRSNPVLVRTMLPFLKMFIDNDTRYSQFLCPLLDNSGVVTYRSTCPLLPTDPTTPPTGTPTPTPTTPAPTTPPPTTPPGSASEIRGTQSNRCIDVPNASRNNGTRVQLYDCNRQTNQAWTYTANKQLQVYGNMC [ESM106]",
    "comparator": "=",
    "experimental_value": 2
  },
  {
    "polymer_sequence": "ADNPYQRGPDPTPASVGASRGTFATAQVSVPAGNGFGGGVIYYPTDTSQGRFGAVAVVPGYTATWAAEGAWMGPWLASFGFVVIGIDTNSRNDWDTARGTQLLAALDYLTQRSSVRDRVDASRAAVMGHSMGGGGAIYAALQRPSLKTTVGLAPFSASQTLNNMRVPTMLLAGQNDGTTTPASIRNYYGQVPSGVEKAYLELTGAGHGFPTSNNPTMMRNVIPWLKIFVDSDTRYTQFLCPLSNTNGIRSYESTCPLVPSPVPTDPPTSAPPTSTPPTTPPPTTPPPTTPAPGGPCAASYRTVNSWSGGFQGEVTVRAGGAPINGWTVRWTLGGGQSISQVWNGTLSTSGSTATVRNAPYNGSLPASGSTTFGFIANGSPSAPTLTCASP [TEP013]",
    "comparator": "<",
    "experimental_value": 3
  }
]
